- Assayed target: UniProtKB P08684
- Sequence (P08684 whole entry): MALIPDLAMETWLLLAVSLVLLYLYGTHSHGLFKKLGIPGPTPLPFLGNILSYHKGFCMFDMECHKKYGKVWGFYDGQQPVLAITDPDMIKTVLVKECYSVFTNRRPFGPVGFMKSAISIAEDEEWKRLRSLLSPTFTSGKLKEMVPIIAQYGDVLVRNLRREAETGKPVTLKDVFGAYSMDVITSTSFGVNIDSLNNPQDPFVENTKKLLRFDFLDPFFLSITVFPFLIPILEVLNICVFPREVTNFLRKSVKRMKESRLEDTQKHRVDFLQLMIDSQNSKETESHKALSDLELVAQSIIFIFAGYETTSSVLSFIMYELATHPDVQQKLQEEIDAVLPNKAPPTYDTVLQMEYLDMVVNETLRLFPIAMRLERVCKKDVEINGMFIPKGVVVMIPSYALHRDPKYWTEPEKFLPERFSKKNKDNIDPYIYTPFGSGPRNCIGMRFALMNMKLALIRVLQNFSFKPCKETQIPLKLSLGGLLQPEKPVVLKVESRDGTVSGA
- Procedure text: Inhibition of CYP3A4 in human liver microsomes at 10 uM
- Type: ADME
Endpoint label: inhibition at 10 µM

CC(C)(C)c1ccc(Cn2ccn3nc(C(=O)N4CCCCC4)cc3c2=O)cc1
0%
CC(C)(C)c1ccc(Cn2ccn3cc(C(=O)N4CCCCC4)nc3c2=O)cc1
0%
O=C(c1cc2n(n1)CCN(Cc1ccc(Cl)c(Cl)c1)C2=O)N1CCCCC1
16%
O=C(c1cc2n(n1)CCCN(Cc1ccc(Cl)c(Cl)c1)C2=O)N1CCCCC1
0%

Please look at the following compound next.
Looking up CC(C)(C)c1ccc(CN2CC(O)n3nc(C(=O)N4CCCCC4)cc3C2=O)cc1 (stereo not given) , I found its inhibition at 10 µM recorded as 0%

---

- Assayed target: CYP2C19 (Homo sapiens, UniProt P33261)
- Sequence (P33261 whole entry): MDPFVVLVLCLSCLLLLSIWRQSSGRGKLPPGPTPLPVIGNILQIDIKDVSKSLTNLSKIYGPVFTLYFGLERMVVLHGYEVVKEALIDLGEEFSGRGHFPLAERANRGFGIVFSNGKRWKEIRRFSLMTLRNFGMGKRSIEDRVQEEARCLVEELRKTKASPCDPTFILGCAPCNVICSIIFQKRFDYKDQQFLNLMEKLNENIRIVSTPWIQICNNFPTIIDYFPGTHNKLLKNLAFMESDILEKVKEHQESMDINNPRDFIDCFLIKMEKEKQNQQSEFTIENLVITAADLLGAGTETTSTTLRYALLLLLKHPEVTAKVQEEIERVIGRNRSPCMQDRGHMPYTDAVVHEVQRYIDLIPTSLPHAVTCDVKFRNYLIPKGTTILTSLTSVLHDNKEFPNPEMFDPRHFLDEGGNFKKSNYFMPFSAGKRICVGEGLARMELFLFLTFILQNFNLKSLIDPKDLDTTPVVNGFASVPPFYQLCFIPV
- Procedure text: Inhibition of CYP2C19 in human liver microsomes at 10 uM
- Format: ADME
Entry flag: yes (1) if inhibition at 10 µM reaches 6%; no (0) if it does not.

Exercise: Entry `CC(C)(C)c1ccc(CN2CCn3nc(C(=O)N4CCCCC4)cc3C2=O)cc1` : is its inhibition at 10 µM no less than 6%?
Key: no (0)

Exercise: Has `O=C(c1cc2n(n1)CCN(Cc1ccc(Cl)c(Cl)c1)C2=O)N1CCCCC1` a recorded inhibition at 10 µM greater than or equal to 6%?
Key: no (0)

Exercise: Does the compound `CC(C)(C)c1ccc(Cn2ccn3cc(C(=O)N4CCCCC4)nc3c2=O)cc1` have recorded inhibition at 10 µM that is 6% or more?
Key: no (0)

Exercise: Reported inhibition at 10 µM reaches at least 6% for CC(C)(C)c1ccc(CN2CC(O)n3nc(C(=O)N4CCCCC4)cc3C2=O)cc1 (centres undefined) ?
Key: no (0)

Exercise: Can `CC(C)(C)c1ccc(Cn2ccn3nc(C(=O)N4CCCCC4)cc3c2=O)cc1` be said to have inhibition at 10 µM at or above 6%?
Key: yes (1)

Exercise: Could you please find out whether `O=C(c1cc2c(=O)n(Cc3ccc(Cl)c(Cl)c3)ccn2n1)N1CCCCC1` has inhibition at 10 µM that meets 6% or exceeds it?
Key: yes (1)

Exercise: Identify whether the reported inhibition at 10 µM of the following compound is 6% or greater: O=C(c1cc2n(n1)C(O)CN(Cc1ccc(Cl)c(Cl)c1)C2=O)N1CCCCC1 (centres undefined)
Key: yes (1)

Exercise: Does the reported inhibition at 10 µM for `O=C(c1cc2n(n1)CCCN(Cc1ccc(Cl)c(Cl)c1)C2=O)N1CCCCC1` fall at or above the 6% mark?
Key: no (0)

---

MIC values by entry
- Test system: Mycobacterium tuberculosis
- Procedure text: Antimicrobial activity against Mycobacterium tuberculosis H37Rv assessed as reduction in microbial growth incubated for 5 days by CLSI protocol based assay
- Assay type: functional
- Condition notes: 120 h

O=C(c1cc2n(n1)CCN(Cc1cccc(-c3ccccc3)c1)C2=O)N1CCCCC1
8 µg/mL
O=C(c1cc2n(n1)CCN(c1ccc(Cl)c(Cl)c1)C2=O)N1CCCCC1
> 32 µg/mL

Continue with the next compound.
Query `O=C(c1cc2n(n1)CCN(CC1CCCCC1)C2=O)N1CCCCC1` yields MIC of > 32 µg/mL
